As shown below, each of these compounds has a reported pIC50 value.
Test Target: protein-protein interaction between Kras and SOS1 (biotin-tagged human Kras loaded with GDP, His-tagged human SOS1) (Homo sapiens (Human), UniProt P01116, G12D)
Experimental Details: Protein-protein interaction inhibition between Kras and SOS1 (KrasG12D-SOS PPI) using AlphaScreen;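 note: kras produced in E. coli, Ni-coupled donor beads and streptavidin acceptor beads, excitation 680 nm with emission detected at 520–620 nm via singlet oxygen transfer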
Assay type: biochemical
Experimental Conditions: AlphaScreen; biotin-tagged human Kras loaded with GDP, His-tagged human SOS1; read-out: KRAS G12D-SOS PPI IC50
Numbered stars: 1 amine (or outer) side, 2 acyl side, 3 side chain; on linkers, the order of the positions; unused ones are H or OH. Bridge positions count the residues as written; N and C are the ends. Square brackets hold non-standard residues; d marks the D form. Peptide text beside a SMILES is read from it. * marks the point of attachment. hPhe(3,5-F2-4-CF3) = N[C@@H](CCc1cc(F)c(C(F)(F)F)c(F)c1)C(=O)O; hPhe(3-Cl-4-CF3) = N[C@@H](CCc1ccc(C(F)(F)F)c(Cl)c1)C(=O)O; NEtPhe(4-Me) = CCN[C@@H](Cc1ccc(C)cc1)C(=O)O; NMedβ3hAla = C[C@H](CC(=O)[*:2])N(C)[*:1]; NMeGly(cPent) = CN[C@H](C(=O)O)C1CCCC1; NMeCha = CN[C@@H](CC1CCCCC1)C(=O)O; Hyp = O=C(O)[C@@H]1C[C@@H](O)CN1; NMeI = CC[C@H](C)[C@H](NC)C(=O)O; NMeD = CN[C@@H](CC(=O)O)C(=O)O; NMeL = CN[C@@H](CC(C)C)C(=O)O; NMeV = CN[C@H](C(=O)O)C(C)C; NMeS = CN[C@@H](CO)C(=O)O; Morpholide = C1CN(*)CCO1; NMeA = CN[C@@H](C)C(=O)O; Piperidide = C1CCN(*)CC1; Pra = C#CC[C@H](N)C(=O)O; Ac5c = NC1(C(=O)O)CCCC1; Aze = O=C(O)[C@@H]1CCN1; X53 = CC1(C)CCN(*)C1; Sar = CNCC(=O)O; Propyl = CCC*
Conceptually, pIC50 converts a concentration in mol/L into minus its log10.

Examples from the recorded data:
Value lookup for pIC50; key = CC[C@H](C)[C@@H]1NC(=O)[C@H](CC(C)C)N(C)C(=O)C[C@@H](C(=O)N2CCOCC2)N(C)C(=O)[C@H](C2CCCC2)N(C)C(=O)C2(CCCC2)NC(=O)[C@@H]2CCCN2C(=O)[C@H](CCc2cc(F)c(C(F)(F)F)c(F)c2)NC(=O)CN(C)C(=O)[C@H](CC2CCCCC2)N(C)C(=O)[C@@H]2CCN2C(=O)[C@H](C)N(C)C1=O [Compound 1308] ([NMeL]I[NMeA][Aze][NMeCha][Sar][hPhe(3,5-F2-4-CF3)]P[Ac5c][NMeGly(cPent)][NMeD]-Morpholide; lactam N-11) 9.19

Value lookup for pIC50; key = CC[C@H](C)[C@@H]1NC(=O)[C@H](CC(C)C)N(C)C(=O)C[C@@H](C(=O)N2CCC(C)(C)C2)NC(=O)[C@H](C(C)C)N(C)C(=O)C2(CCCC2)NC(=O)[C@@H]2CCCN2C(=O)[C@H](CCc2ccc(C(F)(F)F)c(Cl)c2)NC(=O)CN(C)C(=O)[C@H](CC2CCCCC2)N(C)C(=O)[C@@H]2CCN2C(=O)[C@H](C)N(C)C1=O [Compound 1280] ([NMeL]I[NMeA][Aze][NMeCha][Sar][hPhe(3-Cl-4-CF3)]P[Ac5c][NMeV]D-X53; lactam N-11) 7.13

Value lookup for pIC50; key = CCCOC[C@H]1C(=O)N(C)CC(=O)N[C@@H](CCc2ccc(C(F)(F)F)c(Cl)c2)C(=O)N2CCC[C@H]2C(=O)NC2(CCCC2)C(=O)N(C)[C@@H]([C@@H](C)CC)C(=O)N(C)[C@H](C(=O)N2CCOCC2)CC(=O)N(C)[C@@H](CC(C)C)C(=O)N[C@@H]([C@@H](C)CC)C(=O)N(C)[C@@H](C)C(=O)N2CC[C@H]2C(=O)N1C [Compound 693] ([NMeL]I[NMeA][Aze][NMeS](Propyl)[Sar][hPhe(3-Cl-4-CF3)]P[Ac5c][NMeI][NMeD]-Morpholide; lactam N-11) 8.80

Continuing:
Value lookup for pIC50; key = C#CC[C@@H]1NC(=O)[C@H](CC(C)C)N(C)C(=O)C[C@@H](C(=O)N2CCCCC2)N(C)C(=O)[C@H](C(C)C)N(C)C(=O)C2(CCCC2)NC(=O)[C@@H]2CCCN2C(=O)[C@H](CCc2ccc(C(F)(F)F)c(Cl)c2)NC(=O)CN(C)C(=O)[C@H](CC2CCCCC2)N(C)C(=O)[C@@H]2CCN2C(=O)[C@H](C)N(C)C1=O [Compound 946] ([NMeL][Pra][NMeA][Aze][NMeCha][Sar][hPhe(3-Cl-4-CF3)]P[Ac5c][NMeV][NMeD]-Piperidide; lactam N-11) 8.12

Value lookup for pIC50; key = CCO[C@@H]1C[C@H]2C(=O)NC3(CCCC3)C(=O)N(C)[C@@H](C3CCCC3)C(=O)N(C)[C@H](C)CC(=O)N(C)[C@@H](CC(C)C)C(=O)N[C@@H]([C@@H](C)CC)C(=O)N(C)[C@@H](C)C(=O)N3CC[C@H]3C(=O)N(CC)[C@@H](Cc3ccc(C)cc3)C(=O)N(C)CC(=O)N[C@@H](CCc3ccc(C(F)(F)F)c(Cl)c3)C(=O)N2C1 [Compound 775] (cyclo([Ac5c][NMeGly(cPent)][NMedβ3hAla][NMeL]I[NMeA][Aze][NEtPhe(4-Me)][Sar][hPhe(3-Cl-4-CF3)][Hyp](Et))) 8.34
